Measured endpoint: melting point

INSERT INTO assay_data (compound, value) VALUES
  ('COCC#CC1=CC(C)(C)Oc2c(OC)cc(Cc3cnc(N)nc3N)cc21', '236 to 237 °C'),
  ('CCOc1cc(Cc2cnc(N)nc2N)cc2c1OC(C)(C)C=C2C(C)(O)CC (stereo not shown)', '127 to 128 °C'),
  ('CCOc1cc(Cc2cnc(N)nc2N)cc2c1OC(C)(C)C=C2c1cccc(F)c1', '185 to 186 °C'),
  ('CCOc1cc(Cc2cnc(N)nc2N)cc2c1OC1(C=C2Br)CCC1', '213 to 214 °C'),
  ('CCC1=CC(C)(C)Oc2c(OC)cc(Cc3cnc(N)nc3N)cc21', '256 to 257 °C'),
  ('CCOc1cc(Cc2cnc(N)nc2N)cc2c1OC(C)(C)C=C2c1ccncc1', '223 to 226 °C'),
  ('COc1cc(Cc2cnc(N)nc2N)cc2c1OC1(C=C2)CCCCC1', '181 to 182 °C'),
  ('CCOc1cc(Cc2cnc(N)nc2N)cc2c1OC(C)(C)C=C2C(C)(C)O', '209 to 210 °C'),
  ('CCOc1cc(Cc2cnc(N)nc2N)cc2c1OC(C)(C)C=C2C#CC(C)O (stereo not shown)', '218 to 219 °C'),
  ('COc1cc(Cc2cnc(N)nc2N)cc2c1OC(C)(C)C=C2c1ccccc1', '> 260 °C'),
  ('CCCC1=CC(C)(C)Oc2c(OCC)cc(Cc3cnc(N)nc3N)cc21', '208 to 209 °C'),
  ('CCOc1cc(Cc2cnc(N)nc2N)cc2c1OC(C)(C)C=C2c1cccs1', '213 to 214 °C (dec.)'),
  ('CCOc1cc(Cc2cnc(N)nc2N)cc2c1OC(C)(C)C=C2c1cccc(N)c1', '196 to 198 °C (dec.)');

---

Target: purified DHFR of the strain 157/4696 (highly trimethoprim-resistant; clinical isolate) of Staphylococcus aureus (Staphylococcus aureus)
Test: biochemical
Known IC50 of a selection of molecules
Measured endpoint: IC50 (µM)

INSERT INTO assay_data (molecule, measured_endpoint, value) VALUES
  ('COc1cc(Cc2cnc(N)nc2N)cc2c1OC(C)(C)C=C2c1ccc(F)cc1', 'IC50', 0.08),
  ('COc1cc(Cc2cnc(N)nc2N)cc2c1OC(C)(C)C=C2Br', 'IC50', 0.15),
  ('COc1cc(Cc2cnc(N)nc2N)cc2c1OC(C)(C)C=C2Cl', 'IC50', 0.38),
  ('COc1cc(Cc2cnc(N)nc2N)cc2c1OC(C)(C)C=C2SC', 'IC50', 0.088),
  ('CCCC1=CC(C)(C)Oc2c(OCC)cc(Cc3cnc(N)nc3N)cc21', 'IC50', 1.1),
  ('CCOc1cc(Cc2cnc(N)nc2N)cc2c1OC(C)(C)C=C2Br', 'IC50', 0.11),
  ('CCOc1cc(Cc2cnc(N)nc2N)cc2c1OC1(C=C2Br)CCC1', 'IC50', 0.21),
  ('CCOc1cc(Cc2cnc(N)nc2N)cc2c1OC(C)(C)C=C2C', 'IC50', 1.3),
  ('COCC#CC1=CC(C)(C)Oc2c(OC)cc(Cc3cnc(N)nc3N)cc21', 'IC50', 0.22),
  ('COc1cc(Cc2cnc(N)nc2N)cc2c1OC1(C=C2Br)CCOCC1', 'IC50', 0.15),
  ('CCOc1cc(Cc2cnc(N)nc2N)cc(OCC)c1-n1cccc1 [Epiroprim, reference compound]', 'IC50', 2),
  ('CCOc1cc(Cc2cnc(N)nc2N)cc2c1OC(C)(C)C=C2CC', 'IC50', 0.67);

---

Known melting point of a selection of compounds
Measured endpoint: melting point

INSERT INTO measurements (item_smiles, measured_endpoint, value) VALUES
  ('COc1cc(Cc2cnc(N)nc2N)cc2c1OC(C)(C)C=C2c1cccc([N+](=O)[O-])c1', 'melting point', '253 to 254 °C'),
  ('COc1cc(Cc2cnc(N)nc2N)cc2c1OC(C)(C)C=C2C#CCO', 'melting point', '236 to 237 °C'),
  ('CCOc1cc(Cc2cnc(N)nc2N)cc2c1OC(C)(C)C=C2c1ccc(OC)c(OC)c1', 'melting point', '191 to 192 °C'),
  ('COc1cc(Cc2cnc(N)nc2N)cc2c1OC(C)(C)C=C2c1cccc(F)c1', 'melting point', '267 °C (dec.)'),
  ('CCOc1cc(Cc2cnc(N)nc2N)cc2c1OC(C)(C)C=C2c1ccc(F)cc1', 'melting point', '204 to 205 °C (dec.)'),
  ('CCOc1ccc(C2=CC(C)(C)Oc3c(OCC)cc(Cc4cnc(N)nc4N)cc32)cc1', 'melting point', '186 to 188 °C'),
  ('CCOc1cc(Cc2cnc(N)nc2N)cc2c1OC(C)(C)C=C2Cl', 'melting point', '197 to 199 °C'),
  ('CCOc1cc(Cc2cnc(N)nc2N)cc2c1OC(C)(C)C=C2c1cccnc1', 'melting point', '145 °C (dec.)'),
  ('COc1cc(Cc2cnc(N)nc2N)cc2c1OC(C)(C)C=C2CO', 'melting point', '239 to 240 °C'),
  ('CCOc1cc(Cc2cnc(N)nc2N)cc2c1OC(C)(C)C=C2CC', 'melting point', '222 to 225 °C (dec.)'),
  ('CCOc1cc(Cc2cnc(N)nc2N)cc2c1OC(C)(C)C=C2c1cccc(NC(C)=O)c1', 'melting point', '145 °C (dec.)'),
  ('COc1cc(Cc2cnc(N)nc2N)cc2c1OC(C)(C)C=C2Cl', 'melting point', '221 to 222 °C'),
  ('CCOc1cc(Cc2cnc(N)nc2N)cc2c1OC(C)(C)C=C2CO', 'melting point', '187 to 189 °C'),
  ('COc1cc(Cc2cnc(N)nc2N)cc2c1OC(C)(C)C=C2c1cccs1', 'melting point', '> 260 °C'),
  ('C=C(C)C1=CC(C)(C)Oc2c(OCC)cc(Cc3cnc(N)nc3N)cc21', 'melting point', '188 to 189 °C'),
  ('CCOc1cc(Cc2cnc(N)nc2N)cc2c1OC(C)(C)C=C2c1ccsc1', 'melting point', '217 °C (dec.)'),
  ('CCOc1cc(Cc2cnc(N)nc2N)cc2c1OC(C)(C)C=C2', 'melting point', '184 to 186 °C'),
  ('CCOc1cc(Cc2cnc(N)nc2N)cc2c1OC(C)(C)C=C2[Si](C)(C)C', 'melting point', '189 to 190 °C'),
  ('CCOc1cc(Cc2cnc(N)nc2N)cc2c1OC(C)(C)C=C2C', 'melting point', '216 to 218 °C');

---

Known IC50 of a selection of compounds
Biological target: purified DHFR of strain Sp1/1 of Streptococcus pneumoniae (Streptococcus pneumoniae, UniProt Q54801)
Conditions: read-out: DHFR Spn1/1 (IC50); purified DHFR of S. pneumoniae strain Spn1/1; IC50 determined graphically
Measured endpoint: IC50 (nM)

INSERT INTO assay_data (item_smiles, value) VALUES
  ('CCOc1cc(Cc2cnc(N)nc2N)cc2c1OC(C)(C)C=C2C', 15),
  ('COc1cc(Cc2cnc(N)nc2N)cc2c1OC(C)(C)C=C2Cl', 110),
  ('COc1cc(Cc2cnc(N)nc2N)cc2c1OC1(C=C2Br)CCOCC1', 52),
  ('COc1cc(Cc2cnc(N)nc2N)cc2c1OC(C)(C)C=C2c1ccc(F)cc1', 190),
  ('CCOc1cc(Cc2cnc(N)nc2N)cc2c1OC(C)(C)C=C2Br', 0.33),
  ('COc1cc(Cc2cnc(N)nc2N)cc2c1OC(C)(C)C=C2SC', 78),
  ('COCC#CC1=CC(C)(C)Oc2c(OC)cc(Cc3cnc(N)nc3N)cc21', 680),
  ('CCOc1cc(Cc2cnc(N)nc2N)cc2c1OC(C)(C)C=C2CC', 12),
  ('CCCC1=CC(C)(C)Oc2c(OCC)cc(Cc3cnc(N)nc3N)cc21', 15),
  ('CCOc1cc(Cc2cnc(N)nc2N)cc2c1OC1(C=C2Br)CCC1', 8.9),
  ('COc1cc(Cc2cnc(N)nc2N)cc2c1OC(C)(C)C=C2Br', 52);
